Target: Prostaglandin G/H synthase 1 (Homo sapiens); also: in other assays of this panel Not Active means under 50% inhibition at 10 µM;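 also: inhibition of COX-1 enzyme activity, with arachidonic acid supplied as substrate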
Sequence (P23219 whole entry): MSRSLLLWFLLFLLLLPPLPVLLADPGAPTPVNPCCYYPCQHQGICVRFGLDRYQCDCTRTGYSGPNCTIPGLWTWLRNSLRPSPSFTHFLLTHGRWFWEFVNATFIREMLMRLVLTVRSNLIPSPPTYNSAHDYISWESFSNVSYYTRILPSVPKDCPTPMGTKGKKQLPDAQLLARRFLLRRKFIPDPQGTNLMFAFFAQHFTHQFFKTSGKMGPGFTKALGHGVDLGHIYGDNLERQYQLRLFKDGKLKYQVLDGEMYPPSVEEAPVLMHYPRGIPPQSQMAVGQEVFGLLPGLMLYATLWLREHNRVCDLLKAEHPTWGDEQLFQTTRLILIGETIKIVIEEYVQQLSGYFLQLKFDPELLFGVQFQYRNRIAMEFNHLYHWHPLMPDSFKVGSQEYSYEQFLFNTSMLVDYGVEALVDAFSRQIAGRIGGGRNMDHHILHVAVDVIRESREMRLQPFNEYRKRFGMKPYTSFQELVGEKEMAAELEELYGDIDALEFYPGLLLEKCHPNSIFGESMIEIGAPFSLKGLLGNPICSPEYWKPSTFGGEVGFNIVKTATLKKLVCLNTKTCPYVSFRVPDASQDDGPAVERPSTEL
Test: biochemical
Type: tissue-based, Platelet
Conditions: platelet
measurementLabel: IC50

compound	measurementLabel	result
COC(=O)C1=C(C)NC(C)=C(C(=O)OC)C1c1ccccc1[N+](=O)[O-] [NIFEDIPINE]	IC50	Not Active
CC(C)NC[C@H](O)COc1cccc2[nH]ccc12	IC50	Not Active
Clc1ccccc1C(c1ccccc1)(c1ccccc1)n1ccnc1 [CLOTRIMAZOLE]	IC50	Not Active
COc1ccc(CCN2CCC(Nc3nc4ccccc4n3Cc3ccc(F)cc3)CC2)cc1 [ASTEMIZOLE]	IC50	Not Active
COC(=O)c1ccc(O)cc1 [METHYLPARABEN]	IC50	Not Active
COCc1c(C(C)C)nc(C(C)C)c(/C=C/[C@@H](O)C[C@@H](O)CC(=O)O)c1-c1ccc(F)cc1 [CERIVASTATIN]	IC50	Not Active
COS(C)(=O)=O [METHANESULFONIC ACID METHYL ESTER]	IC50	Not Active
CC(C)(C)NCC(O)c1ccc(O)c(CO)c1 (centres undefined) [ALBUTEROL]	IC50	Not Active
CNCCC=C1c2ccccc2CCc2ccccc21 [NORTRIPTYLINE]	IC50	Not Active
CCC[C@@H]1C[C@@H](C(=O)N[C@@H]([C@H]2O[C@H](SC)[C@H](O)[C@@H](O)[C@H]2O)[C@@H](C)O)N(C)C1 [LINCOMYCIN]	IC50	Not Active
C=C1C(=O)O[C@@H]2C3O[C@]3(C)CC/C=C(\C)CC[C@@H]12 (some centres undefined)	IC50	Not Active
COc1c(N2CCNC(C)C2)c(F)cc2c(=O)c(C(=O)O)cn(C3CC3)c12 (centres undefined) [GATIFLOXACIN]	IC50	Not Active
CCOC(=O)OC(C)OC1=C(C(=O)Nc2ccccn2)N(C)S(=O)(=O)c2ccccc21 (centres undefined) [AMPIROXICAM]	IC50	Not Active
COc1ccc(CN(CCN(C)C)c2ccccn2)cc1 [PYRILAMINE]	IC50	Not Active
CC[N+](CC)(CC)CCOc1cccc(OCC[N+](CC)(CC)CC)c1OCC[N+](CC)(CC)CC.[I-].[I-].[I-] [GALLAMINE TRIETHIODIDE]	IC50	Not Active
CCCC[C@@H](CC)COC(=O)c1ccccc1C(=O)OC[C@@H](CC)CCCC [BIS(2-ETHYLHEXYL)PHTHALATE]	IC50	Not Active
CC(/C=C1\SC(=S)N(CC(=O)O)C1=O)=C\c1ccccc1	IC50	Not Active
Cc1ccccc1N1CCN(CCc2nnc3n2CCCC3)CC1 [DAPIPRAZOLE]	IC50	Not Active
C/C=C1\[C@H]2C=C(C)C[C@]1(N)c1ccc(=O)[nH]c1C2 [HUPERZINE A]	IC50	Not Active
Cc1cc(NS(=O)(=O)c2ccc(N)cc2)no1 [SULFAMETHOXAZOLE]	IC50	Not Active
CC1(C)S[C@@H]2[C@H](NC(=O)[C@H](N)c3ccc(O)cc3)C(=O)N2[C@H]1C(=O)O [AMOXICILLIN]	IC50	Not Active
CC(C)(Oc1ccc(CCNC(=O)c2ccc(Cl)cc2)cc1)C(=O)O [BEZAFIBRATE]	IC50	Not Active
CCCCCCCCCc1ccc(O)cc1 [4-NONYLPHENOL]	IC50	Not Active
CC(=O)[C@@]1(O)CC[C@H]2[C@@H]3C[C@H](C)C4=CC(=O)C=C[C@]4(C)[C@@]3(F)[C@@H](O)C[C@@]21C [FLUOROMETHOLONE]	IC50	Not Active
c1ccc2[nH]c(-c3cscn3)nc2c1 [THIABENDAZOLE]	IC50	Not Active
CCc1ccc(C(=O)C(C)CN2CCCCC2)cc1 (centres undefined) [EPERISONE]	IC50	Not Active
C=C1CC[C@H](O)C/C1=C/C=C1\CCC[C@]2(C)[C@@H]([C@H](C)/C=C/[C@H](C)C(C)C)CC[C@@H]12 [ERGOCALCIFEROL]	IC50	Not Active
CC(=O)S[C@@H]1CC2=CC(=O)CC[C@]2(C)[C@H]2CC[C@@]3(C)[C@@H](CC[C@@]34CCC(=O)O4)[C@H]12 [SPIRONOLACTONE]	IC50	Not Active
Cc1ccc(C(=O)C(C)CN2CCCCC2)cc1 (centres undefined) [TOLPERISONE]	IC50	Not Active
O=C1CCc2cc(OCCCCc3nnnn3C3CCCCC3)ccc2N1 [CILOSTAZOL]	IC50	Not Active
O=C1CN=C(c2ccccc2)c2cc([N+](=O)[O-])ccc2N1 [NITRAZEPAM]	IC50	Not Active
C=C1[C@@H]2CCC3[C@@](CC[C@@H]4[C@H](C(=O)O)C[C@@H](O[C@@H]5O[C@H](CO)[C@@H](OS(=O)(=O)[O-])[C@H](OS(=O)(=O)[O-])[C@H]5OC(=O)CC(C)C)C[C@@]34C)(C2)[C@@H]1O.[K+].[K+] (some centres undefined) [ATRACTYLOSIDE]	IC50	Not Active
Oc1c(I)cc(I)c2cccnc12 [IODOQUINOL]	IC50	Not Active
COC(=O)[C@H](c1ccccc1Cl)N1CCc2sccc2C1 [CLOPIDOGREL]	IC50	Not Active
